EXPERIMENTAL_TARGET: UniProtKB P08173
Sequence (P08173 whole entry): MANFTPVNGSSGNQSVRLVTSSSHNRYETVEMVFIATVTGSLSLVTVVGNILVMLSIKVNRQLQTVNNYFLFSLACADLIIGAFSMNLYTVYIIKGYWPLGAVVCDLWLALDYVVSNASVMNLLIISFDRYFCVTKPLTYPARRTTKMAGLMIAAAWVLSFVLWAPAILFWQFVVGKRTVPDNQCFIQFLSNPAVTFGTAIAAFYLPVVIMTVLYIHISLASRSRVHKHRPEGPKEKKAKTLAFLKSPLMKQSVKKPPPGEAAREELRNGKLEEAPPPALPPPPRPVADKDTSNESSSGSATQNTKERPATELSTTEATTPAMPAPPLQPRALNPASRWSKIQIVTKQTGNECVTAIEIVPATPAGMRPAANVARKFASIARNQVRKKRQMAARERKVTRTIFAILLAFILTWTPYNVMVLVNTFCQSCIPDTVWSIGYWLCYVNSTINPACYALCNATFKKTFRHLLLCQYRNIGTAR
EXPERIMENTAL_DETAILS: mAChR M4 cell-based functional assay (calcium flux, potentiation of EC20 acetylcholine response)
REPORTED_CONDITIONS: CHO-K1 cells with human M4 and Gqi5; increase in EC20 acetylcholine response
For each entry below, report its pEC50 value.
One number for each entry, as −log10 of the molar value.

For every record below, what is its pEC50?
1. Cc1nc(C2CC2)nc2sc3c(N4CCC(F)CC4)nccc3c12 [Compound 40]
2. CCc1nc(C)c2c(n1)sc1c(NCc3ccc(OC)c(F)c3)nccc12 [Compound 33]
3. Cc1nc(C)c2c(n1)sc1c(NC3CCCC3)nccc12 [Compound 15]
4. Cc1nc(C)c2c(n1)sc1c(N3CC[C@H](F)C3)ncnc12 [Compound 19]

RESULT:
1: 5.83; 2: 5.88; 3: 6.87; 4: 5.97
